Recorded values, source ChEMBL document CHEMBL4002626.

assayed.system: Fibroblast growth factor receptor 2 (Homo sapiens)
Sequence (P21802 whole entry, the tested form may be a part): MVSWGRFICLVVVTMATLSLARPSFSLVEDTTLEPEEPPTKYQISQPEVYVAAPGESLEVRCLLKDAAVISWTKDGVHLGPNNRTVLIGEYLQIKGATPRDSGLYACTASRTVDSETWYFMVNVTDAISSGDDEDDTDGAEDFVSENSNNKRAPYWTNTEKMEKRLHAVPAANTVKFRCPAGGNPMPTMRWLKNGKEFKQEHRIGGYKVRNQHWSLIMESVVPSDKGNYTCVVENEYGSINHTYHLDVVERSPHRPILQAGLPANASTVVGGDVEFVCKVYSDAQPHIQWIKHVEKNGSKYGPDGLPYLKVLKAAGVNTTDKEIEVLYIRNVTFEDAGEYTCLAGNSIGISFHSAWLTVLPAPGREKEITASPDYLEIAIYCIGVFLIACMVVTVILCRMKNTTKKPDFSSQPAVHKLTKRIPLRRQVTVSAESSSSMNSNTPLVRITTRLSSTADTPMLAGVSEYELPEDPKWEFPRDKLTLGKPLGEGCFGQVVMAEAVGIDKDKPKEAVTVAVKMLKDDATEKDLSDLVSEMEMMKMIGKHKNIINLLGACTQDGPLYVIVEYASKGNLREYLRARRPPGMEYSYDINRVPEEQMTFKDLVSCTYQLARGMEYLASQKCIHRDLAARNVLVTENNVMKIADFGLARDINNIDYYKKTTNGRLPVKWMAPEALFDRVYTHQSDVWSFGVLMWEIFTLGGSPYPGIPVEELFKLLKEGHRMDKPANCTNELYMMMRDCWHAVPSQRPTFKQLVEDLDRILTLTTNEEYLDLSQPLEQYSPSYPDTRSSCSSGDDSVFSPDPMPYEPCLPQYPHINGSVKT
measurement.protocol: Inhibition of recombinant human N-terminal GST-tagged FGFR2 cytoplasmic domain (399 to 821 residues) expressed in baculovirus expression system

{"columns": ["molecule.smiles", "IC50"],
 "data": [
  ["COc1cc2ncccc2cc1NC(=O)c1csc2cncnc12", "> 50 µM"]
]}

###

assayed.system: Tyrosine-protein kinase Lck (Homo sapiens, UniProt P06239)
Sequence (P06239 whole entry, the tested form may be a part): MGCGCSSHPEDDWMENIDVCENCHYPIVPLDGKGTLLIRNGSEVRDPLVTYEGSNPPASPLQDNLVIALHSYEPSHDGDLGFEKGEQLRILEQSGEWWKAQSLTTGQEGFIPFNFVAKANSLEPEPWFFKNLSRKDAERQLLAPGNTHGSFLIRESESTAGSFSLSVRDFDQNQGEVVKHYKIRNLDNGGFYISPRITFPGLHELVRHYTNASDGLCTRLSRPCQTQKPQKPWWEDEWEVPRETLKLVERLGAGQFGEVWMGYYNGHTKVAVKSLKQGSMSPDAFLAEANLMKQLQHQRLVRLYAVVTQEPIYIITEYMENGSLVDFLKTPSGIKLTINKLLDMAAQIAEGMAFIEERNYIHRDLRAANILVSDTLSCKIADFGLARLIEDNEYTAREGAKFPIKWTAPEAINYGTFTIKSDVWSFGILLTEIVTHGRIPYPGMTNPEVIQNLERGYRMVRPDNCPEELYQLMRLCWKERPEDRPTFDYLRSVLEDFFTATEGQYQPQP
measurement.protocol: Inhibition of recombinant full length human N-terminal GST-tagged LCK (1 to 509 residues) expressed in baculovirus expression system
measured.quantity: IC50

{"columns": ["molecule.smiles", "measured.quantity", "reported"],
 "data": [
  ["COc1cc2ncccc2cc1NC(=O)c1csc2cncnc12", "IC50", "> 50 µM"]
]}

###

assayed.system: Epidermal growth factor receptor (Homo sapiens, UniProt P00533)
Sequence (P00533 whole entry, the tested form may be a part): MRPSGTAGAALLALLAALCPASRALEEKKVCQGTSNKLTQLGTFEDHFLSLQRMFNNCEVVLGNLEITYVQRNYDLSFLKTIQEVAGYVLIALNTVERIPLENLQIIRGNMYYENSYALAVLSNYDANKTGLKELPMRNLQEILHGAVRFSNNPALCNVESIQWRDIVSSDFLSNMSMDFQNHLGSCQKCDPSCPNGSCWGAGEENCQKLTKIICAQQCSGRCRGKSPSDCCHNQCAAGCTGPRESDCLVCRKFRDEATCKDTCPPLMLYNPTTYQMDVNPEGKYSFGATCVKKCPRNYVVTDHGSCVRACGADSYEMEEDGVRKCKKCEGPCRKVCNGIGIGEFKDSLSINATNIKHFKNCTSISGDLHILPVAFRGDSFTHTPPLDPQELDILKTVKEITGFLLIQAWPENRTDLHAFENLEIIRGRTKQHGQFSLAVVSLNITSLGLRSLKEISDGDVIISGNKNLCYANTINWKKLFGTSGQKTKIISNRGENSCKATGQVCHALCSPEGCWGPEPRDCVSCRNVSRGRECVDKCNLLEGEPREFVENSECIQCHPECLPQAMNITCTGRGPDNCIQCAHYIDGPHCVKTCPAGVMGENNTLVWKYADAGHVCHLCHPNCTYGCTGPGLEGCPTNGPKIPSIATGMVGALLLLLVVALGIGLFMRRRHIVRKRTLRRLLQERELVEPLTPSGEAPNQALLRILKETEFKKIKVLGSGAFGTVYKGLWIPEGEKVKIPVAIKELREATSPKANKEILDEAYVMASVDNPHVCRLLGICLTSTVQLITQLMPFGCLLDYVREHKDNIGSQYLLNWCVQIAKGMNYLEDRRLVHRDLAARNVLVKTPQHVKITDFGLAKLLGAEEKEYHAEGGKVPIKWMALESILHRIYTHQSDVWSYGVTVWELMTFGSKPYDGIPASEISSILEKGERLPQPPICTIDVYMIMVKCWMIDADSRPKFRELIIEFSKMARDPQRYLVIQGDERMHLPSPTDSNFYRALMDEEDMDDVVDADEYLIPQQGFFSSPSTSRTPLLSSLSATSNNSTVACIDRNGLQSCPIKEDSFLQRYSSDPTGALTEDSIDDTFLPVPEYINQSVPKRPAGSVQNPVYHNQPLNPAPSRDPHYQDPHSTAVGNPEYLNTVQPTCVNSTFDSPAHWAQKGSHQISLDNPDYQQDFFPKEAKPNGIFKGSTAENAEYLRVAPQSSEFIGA
measurement.protocol: Inhibition of recombinant human N-terminal GST-tagged EGFR cytoplasmic domain (669 to 1210 residues) expressed in baculovirus expression system
pIC50: −log10 of the molar value.
measured.quantity: pIC50

{"columns": ["molecule.smiles", "reported"],
 "data": [
  ["COc1cc2ncccc2cc1NC(=O)c1csc2cncnc12", "< 4.30"]
]}

###

Parameter: pKd. Scope: all listed entries.
assayed.system: Mitogen-activated protein kinase kinase kinase 7 (Homo sapiens, UniProt O43318)
Sequence (O43318 whole entry, the tested form may be a part): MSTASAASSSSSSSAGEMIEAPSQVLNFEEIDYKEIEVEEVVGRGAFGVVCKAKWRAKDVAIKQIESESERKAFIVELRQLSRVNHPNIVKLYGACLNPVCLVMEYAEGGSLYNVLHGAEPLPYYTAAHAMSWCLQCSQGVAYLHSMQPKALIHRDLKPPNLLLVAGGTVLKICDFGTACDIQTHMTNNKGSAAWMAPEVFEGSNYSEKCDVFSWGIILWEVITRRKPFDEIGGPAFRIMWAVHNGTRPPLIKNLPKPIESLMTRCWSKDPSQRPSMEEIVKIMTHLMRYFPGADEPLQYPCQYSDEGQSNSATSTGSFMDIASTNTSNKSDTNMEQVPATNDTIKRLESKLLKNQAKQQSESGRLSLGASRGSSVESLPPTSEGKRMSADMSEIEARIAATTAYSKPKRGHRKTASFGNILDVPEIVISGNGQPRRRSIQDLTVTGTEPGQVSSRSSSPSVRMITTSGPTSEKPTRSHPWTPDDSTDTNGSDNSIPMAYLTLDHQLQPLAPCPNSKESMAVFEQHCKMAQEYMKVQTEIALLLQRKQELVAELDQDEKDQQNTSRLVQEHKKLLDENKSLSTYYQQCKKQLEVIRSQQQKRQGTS
measurement.protocol: Binding affinity to recombinant human biotinylated N-terminal GST-tagged non-autophosphorylated TAK1 (1 to 303 residues) fused with TAB1 (437 to 504 residues) expressed in baculovirus infected sf9 cells by SPR assay
pKd: −log10 of the molar value.
measured.quantity: pKd

{"columns": ["compound", "reported"],
 "data": [
  ["Nc1ncnc2c1ncn2[C@@H]1O[C@H](COP(=O)(O)OP(=O)(O)O)[C@@H](O)[C@H]1O [ADENOSINE DIPHOSPHATE]", 4.20],
  ["COc1cc2ncccc2cc1NC(=O)c1csc2cncnc12", 6.82],
  ["Nc1ncnc2c1ncn2[C@@H]1O[C@H](CO)[C@@H](O)[C@H]1O [ADENOSINE]", 4.47],
  ["Nc1ncnc2c1ncn2[C@@H]1O[C@H](COP(=O)(O)O)[C@@H](O)[C@H]1O [ADENOSINE PHOSPHATE]", 3.43]
]}

###

assayed.system: Tyrosine-protein kinase ABL1 (Homo sapiens)
Sequence (P00519 whole entry, the tested form may be a part): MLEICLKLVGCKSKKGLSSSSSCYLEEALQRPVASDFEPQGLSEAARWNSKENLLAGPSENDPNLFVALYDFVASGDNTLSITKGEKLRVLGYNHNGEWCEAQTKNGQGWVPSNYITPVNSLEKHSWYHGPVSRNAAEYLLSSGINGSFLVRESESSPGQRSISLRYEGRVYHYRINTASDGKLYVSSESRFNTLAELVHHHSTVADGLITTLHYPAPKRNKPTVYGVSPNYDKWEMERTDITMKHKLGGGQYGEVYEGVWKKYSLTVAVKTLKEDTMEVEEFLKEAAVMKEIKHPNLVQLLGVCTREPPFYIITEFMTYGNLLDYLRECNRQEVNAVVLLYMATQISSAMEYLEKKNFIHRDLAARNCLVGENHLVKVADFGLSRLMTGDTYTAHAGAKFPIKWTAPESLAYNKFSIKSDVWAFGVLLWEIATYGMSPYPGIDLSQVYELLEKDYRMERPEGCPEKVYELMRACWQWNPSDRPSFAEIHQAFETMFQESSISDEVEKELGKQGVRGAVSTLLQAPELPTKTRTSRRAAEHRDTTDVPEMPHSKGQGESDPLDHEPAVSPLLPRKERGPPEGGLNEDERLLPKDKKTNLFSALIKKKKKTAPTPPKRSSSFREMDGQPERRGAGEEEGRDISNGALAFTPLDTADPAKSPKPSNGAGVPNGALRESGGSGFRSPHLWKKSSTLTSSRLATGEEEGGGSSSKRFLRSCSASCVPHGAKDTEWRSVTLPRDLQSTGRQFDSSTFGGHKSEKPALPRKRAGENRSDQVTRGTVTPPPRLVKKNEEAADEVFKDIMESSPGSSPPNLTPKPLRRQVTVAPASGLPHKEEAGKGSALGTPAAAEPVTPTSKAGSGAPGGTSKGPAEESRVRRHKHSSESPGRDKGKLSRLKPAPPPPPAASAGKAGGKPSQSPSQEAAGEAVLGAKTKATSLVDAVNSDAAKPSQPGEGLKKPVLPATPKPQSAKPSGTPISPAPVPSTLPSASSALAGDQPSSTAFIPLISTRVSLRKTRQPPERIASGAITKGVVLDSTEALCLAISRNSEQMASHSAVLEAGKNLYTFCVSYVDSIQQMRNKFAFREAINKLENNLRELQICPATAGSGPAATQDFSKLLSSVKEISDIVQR
measurement.protocol: Inhibition of recombinant full length human N-terminal GST-tagged ABL (2 to 1130 residues) expressed in baculovirus expression system
pIC50: −log10 of the molar value.

{"columns": ["molecule.smiles", "pIC50"],
 "data": [
  ["COc1cc2ncccc2cc1NC(=O)c1csc2cncnc12", "< 4.30"]
]}

###

assayed.system: Tyrosine-protein kinase receptor UFO (Homo sapiens)
Sequence (P30530 whole entry): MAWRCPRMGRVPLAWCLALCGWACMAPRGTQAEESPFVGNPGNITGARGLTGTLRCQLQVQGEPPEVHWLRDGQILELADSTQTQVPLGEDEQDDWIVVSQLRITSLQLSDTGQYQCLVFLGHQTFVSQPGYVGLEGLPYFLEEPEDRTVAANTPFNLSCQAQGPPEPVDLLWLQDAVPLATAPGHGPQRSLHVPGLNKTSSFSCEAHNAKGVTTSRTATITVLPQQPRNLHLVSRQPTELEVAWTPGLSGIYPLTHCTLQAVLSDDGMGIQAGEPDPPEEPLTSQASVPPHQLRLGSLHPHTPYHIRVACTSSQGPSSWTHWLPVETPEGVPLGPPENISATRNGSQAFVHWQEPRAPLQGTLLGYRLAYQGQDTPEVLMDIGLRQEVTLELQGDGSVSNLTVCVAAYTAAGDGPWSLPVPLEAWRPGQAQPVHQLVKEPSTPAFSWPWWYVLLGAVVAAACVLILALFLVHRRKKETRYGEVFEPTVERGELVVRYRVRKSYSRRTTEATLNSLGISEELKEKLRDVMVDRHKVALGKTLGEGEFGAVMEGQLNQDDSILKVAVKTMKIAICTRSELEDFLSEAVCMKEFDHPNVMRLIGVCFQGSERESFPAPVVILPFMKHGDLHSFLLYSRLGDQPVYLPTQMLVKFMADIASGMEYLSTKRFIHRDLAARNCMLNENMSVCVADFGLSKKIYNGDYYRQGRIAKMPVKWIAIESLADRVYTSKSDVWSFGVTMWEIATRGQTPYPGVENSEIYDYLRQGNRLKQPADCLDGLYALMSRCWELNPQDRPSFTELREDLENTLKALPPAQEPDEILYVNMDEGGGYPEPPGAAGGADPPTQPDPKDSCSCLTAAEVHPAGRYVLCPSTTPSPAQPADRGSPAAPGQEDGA
measurement.protocol: Inhibition of recombinant human N-terminal GST-tagged AXL cytoplasmic domain (464 to 885 residues) expressed in baculovirus expression system
pIC50: −log10 of the molar value.
measured.quantity: pIC50

{"columns": ["molecule.smiles", "reported"],
 "data": [
  ["COc1cc2ncccc2cc1NC(=O)c1csc2cncnc12", "< 4.30"]
]}
